Tested on: SF-295
Test: NCI tumour cell line growth inhibition, 48 h
Active and inactive are the calls of the source. No stated cut-off is given here; in the data, active = GI50 up to about 1.1 µM and inactive = higher.
Possible outcomes: active, inactive

molecule | classification
c1cnc2nc3n(c2c1)CSC3 | inactive
COC(=O)/C(C#N)=C1\CCC(Nc2cccc(C(F)(F)F)c2)N1C (stereo not given) | inactive
Cc1cccc(C)c1NC(=O)CCC(=O)NNC(=O)c1cc(O)c2ccccc2c1 | inactive
O=C1/C(=C\c2ccc(Br)cc2)CCCc2ccccc21 | inactive
NCCCCN(CCCN)C(=O)c1ccccc1 | inactive
COc1cccc(C2c3cc4c(cc3OC(N3CCCCC3)C2C)OCO4)c1O (stereo not given) | inactive
CC(C)C(=O)OCN(C)c1nc(N(C)COC(=O)C(C)C)nc(N(C)COC(=O)C(C)C)n1 | inactive
Cc1ccc(NC(=O)C(=O)C2NC(=S)NC2=O)c([N+](=O)[O-])c1 (stereo not given) | inactive
N#CC1(C#N)C2C=CC(C3CC=CC32)C1(C#N)C#N (stereo not given) | inactive
COC1CC(OC2CCC3(C)C(=CCC4C3C(OC(C)=O)C(OC(=O)CC(C)C)C3(C)C(C(C)=O)CCC43O)C2)OC(C)C1OC1CC(OC)C(OC2CC(OC)C(OC3OC(C)C(OC4OC(CO)C(O)C(O)C4O)C(OC)C3O)C(C)O2)C(C)O1 (stereo not given) | inactive
CCCCC1CCCCCCc2[nH]c(/C=C3\N=C(c4ccc[nH]4)C=C3OC)cc21 (stereo not given) | active
O=C(O)CCC(NC(=O)c1ccc(Nc2nc3ccc(C(F)(F)F)cc3nc2C(=O)O)cc1)C(=O)O (stereo not given) | inactive
COc1ccc(-c2c(-c3ccccc3)c(C)nc3[nH]c(=S)[nH]c(=S)c23)cc1OC | inactive
[O-][S+]1c2ccccc2N=C(c2ccc(Cl)cc2)CC1c1cccs1 (stereo not given) | inactive
COc1ccc2c(c1)C(=O)CC(C(N)=O)C2 (stereo not given) | inactive
CCc1[nH]c(=O)nc(N)c1-c1ccc(N2CCCCC2)c([N+](=O)[O-])c1 | inactive
O/N=C1\Nc2ccccc2OCc2cc(Br)c(Br)cc2COc2ccccc2N\C1=N/O | inactive
O=C(Cc1ccccc1)NN1C(=O)/C(=C\c2ccccc2O)S/C1=N\c1ccccc1 | inactive
C/C(=N\NC(=S)N1CC2CCC(CC2)C1)c1cccc(C)n1 | active
CCSc1nnc(CSc2nc(-c3ccccc3)c(-c3ccccc3)[nH]2)n1-c1ccccc1 | inactive
